- assay_procedure: In vivo pharmacokinetics after single oral gavage
- details: rat, male Sprague Dawley rats, fasted, plasma, n = 4/group, mean ± SD, table prints dose 10 mg/kg for all groups (methods: CRYS101 10 mg/kg, CRYS102-104 30 mg/kg)
readout_type: AUC(0-t)

Reported AUC(0-t) ( O=C1[C@H](CC[C@H](O)c2ccc(F)cc2)[C@@H](c2ccc(O)cc2)N1c1ccc(F)cc1 [Ezetimibe] ) = 11 ng·h/mL

----------
- assay_procedure: In vivo pharmacokinetics after single oral gavage
- details: rat, male Sprague Dawley rats, fasted, plasma, SD not determined, table prints dose 10 mg/kg for all groups (methods: CRYS101 10 mg/kg, CRYS102-104 30 mg/kg)
readout_type: AUC(0-inf)
Write down the value, and be sure its unit follows.

Reported AUC(0-inf) ( `O=C1[C@H](CC[C@H](O)c2ccc(F)cc2)[C@@H](c2ccc(O)cc2)N1c1ccc(F)cc1` ) = 41.8 ng·h/mL

----------
- assay_procedure: In vivo pharmacokinetics after single oral gavage
- details: rat, male Sprague Dawley rats, fasted, plasma, n = 4/group, mean ± SD, table prints dose 10 mg/kg for all groups (methods: CRYS101 10 mg/kg, CRYS102-104 30 mg/kg)
readout_type: Tmax (h)
Answer with a number only, understood to be in h.

Reported Tmax ( `O=C1[C@H](CC[C@H](O)c2ccc(F)cc2)[C@@H](c2ccc(O)cc2)N1c1ccc(F)cc1` ) = 1.33
